tested on: HCC-2998 colon; experiment: NCI-60 one-dose screen, 48 h; settings: 10 µM
This is part of a sample that, as a whole, favours compounds with a hit. Of some 83,000 tested, about 20% had one in any assay. The source made the active and inactive calls. Rule for the calls: active = growth percent below 10; inactive = the rest.
In this exercise, the only acceptable responses are active, inactive

[[record]]
compound = "O=C1Nc2ccc(F)cc2/C1=C/c1cccc(OCc2ccccc2)c1"
tgt = "HCC-2998 colon"
class_name = "inactive"

[[record]]
compound = "COc1cc2c3c(n(CCCN4CCOCC4)c(=O)c2cc1OC)-c1nc2c(cc1C3=O)OCO2"
tgt = "HCC-2998 colon"
class_name = "inactive"

[[record]]
compound = "CSc1nc(-c2cccc(C)c2)c2cc(-c3ccccc3)n(C)c2n1"
tgt = "HCC-2998 colon"
class_name = "inactive"


Pending compound:
// outcome(item) with item = `O=S(=O)(c1ccc(Cl)cc1)c1nc(-c2ccccc2)oc1S(=O)(=O)c1ccc(Cl)cc1`
inactive

====

Give growth for every item shown.
system: SNB-75 CNS; assay: NCI-60 one-dose screen, 48 h (100 = growth as untreated, 0 = no growth, -100 = all killed); settings: 10 µM
The panel holds about 83,000 compounds, 20% with a hit somewhere; the sample as a whole holds those more often.
One number for each entry, in %.

Worked cases, growth given:
[[record]]
smiles_record = "COc1ccc(C(=O)/C=C/c2cc(F)cc(C(F)(F)F)c2)cc1S(N)(=O)=O"
tgt = "SNB-75 CNS"
value_reported = 63.2

[[record]]
smiles_record = "O=c1[nH]c2ccc(Cl)cc2cc1CSc1ccc(Nc2nccc(-c3ccc4ccccc4c3)n2)cc1"
tgt = "SNB-75 CNS"
value_reported = 107

[[record]]
smiles_record = "O=c1c2ccccc2nc(COc2ccccc2)n1/N=C/c1ccc(F)cc1"
tgt = "SNB-75 CNS"
value_reported = 105

[[record]]
smiles_record = "CC(C)NC(=O)c1cc(-c2ccc(NC(=O)Nc3ccc(N4CCN(C)CC4)c(C(F)(F)F)c3)cc2)nc2cccnc12"
tgt = "SNB-75 CNS"
value_reported = -96.2


Query compound follows.
# query: growth of entry `C=C(C)[C@@H]1CC[C@]2(COP(=O)(OCC)OCC)CC[C@]3(C)[C@H](CC[C@@H]4[C@@](C)(CCCN)[C@H](C(=C)C)CC[C@]43C)[C@@H]12`
34.4

====

system: SNB-19 CNS; test: NCI-60 one-dose screen, 48 h; conditions: 10 µM
Compounds without any hit were thinned out: in the full panel of roughly 83,000, 20% have a hit. The source made the active and inactive calls. Rule for the calls: active = growth percent below 10; inactive = the rest.
In this exercise, the only acceptable responses are t (active), f (inactive)

For orientation, consider the following solved cases.
[[record]]
compound = "CCOc1ccc(/C=N/NC(=O)Cn2nc(Cc3ccccc3)c3onc(C)c3c2=O)cc1"
tgt = "SNB-19 CNS"
class_name = "t"

[[record]]
compound = "COc1ccc2nc(Cl)c(-c3cc(-c4ccccc4)nc(N)n3)cc2c1"
tgt = "SNB-19 CNS"
class_name = "t"

[[record]]
compound = "O=C(CNc1nc(-c2ccccc2)cs1)Nc1ccccc1"
tgt = "SNB-19 CNS"
class_name = "t"

[[record]]
compound = "C/C(=N\\NC(N)=S)c1ccc(Nc2nc(SC(C)C)nc(-c3ccccc3)c2C#N)cc1"
tgt = "SNB-19 CNS"
class_name = "f"


// outcome(item) with item = `C=C1CC[C@H](C(=C)C)[C@H]2C=C(C)C(=O)C3=C(C(=O)[C@@](C)(O)C3)[C@H]12`
t

// outcome(item) with item = CN(C)c1ccc(/C=C/C(=O)c2ccc(NC(=O)CN3C(=O)NC(C)(c4ccccc4)C3=O)cc2)cc1 (configuration not stated)
f

// outcome(item) with item = COc1cc(/C=C/C(=O)c2ccc(NC(=O)CN3C(=O)NC(C)(c4ccccc4)C3=O)cc2)cc(OC)c1OC (configuration not stated)
f

====

test system: ACHN renal; assay: NCI-60 one-dose screen, 48 h (100 = growth as untreated, 0 = no growth, -100 = all killed); settings: 10 µM
The panel holds about 83,000 compounds, 20% with a hit somewhere; the sample as a whole holds those more often.
Give growth for every item shown.
Give bare numbers, in %.

Worked cases, growth given:
[[record]]
molecule = "COc1ccc2[nH]cc(/C=N/Nc3ccc(Br)cn3)c2c1"
value_reported = 26.7

[[record]]
molecule = "Cc1cccc2cc(-c3cc(-c4ccccc4)nc(=S)[nH]3)c(Cl)nc12"
value_reported = 78.1

[[record]]
molecule = "CCOP(=O)(OCC)O[C@H]1CCC(=O)[C@@H]2[C@H]1[C@H]1C[C@@H]3[C@@]4(C)CCCC(C)(C(=O)OC)[C@@H]4CC[C@@]23C=C1C(C)C (stereo partly drawn)"
value_reported = 65.2

[[record]]
molecule = "COC(=O)c1c(C(=O)OC)c2n(c1C)[C@@H]([C@@H](C)[C@H]1CC[C@H]3[C@@H]4CCC5=CC(=O)CC[C@]5(C)[C@H]4CC[C@]13C)SC2"
value_reported = 46

[[record]]
molecule = "COc1ccc(NC(=O)Nc2ccc(OCC(=O)N=Nc3c(O)[nH]c4ccc([N+](=O)[O-])cc34)cc2)cc1"
value_reported = 102


Each of the following entries comes with a recorded value; kindly state growth for each.
1. O=C(NO)c1ccc(Cn2ccc3c(Nc4ccccc4)ncnc32)cc1
2. CC(C)C(=O)Nc1ccc(C(=O)NC(=S)Nc2ccc(C(=O)O)cc2)cc1
3. COc1ccc(C(=O)CSc2nnc(-c3c[nH]c4ccccc34)n2-c2ccccc2)cc1

1: 1.86; 2: 104; 3: 22.8

====

system: HCC-2998 colon; experiment: NCI-60 one-dose screen, 48 h (100 = growth as untreated, 0 = no growth, -100 = all killed); conditions: 10 µM
About 83,000 compounds went through this panel and 20% of them were active in at least one assay; those are over-represented in the sample as a whole.
If the reported growth equals or exceeds 50%, assign label 1. If not, assign label 0.

For orientation, consider the following solved cases.
[[record]]
smiles_record = "COc1nccnc1NS(=O)(=O)c1ccc(NC2=C(Cl)C(=O)c3nc(C)ccc3C2=O)cc1"
class_name = "label 1"

[[record]]
smiles_record = "COc1ccc(-c2nc(S(=O)(=O)c3ccc(C)cc3)c(S(=O)(=O)CC(=O)N(C)Cc3ccccc3)o2)cc1"
class_name = "label 0"

[[record]]
smiles_record = "CC(C)C1=C[C@@]23CC[C@@H]4[C@](C)(CCC[C@]4(C)C(=O)NCc4ccccc4)[C@H]2C[C@@H]1[C@H]1C(=O)CCC(=O)[C@H]13"
class_name = "label 1"

[[record]]
smiles_record = "C/C(=C\\c1ccc(O)cc1O)c1ccc2ccc(O)cc2[o+]1"
class_name = "label 1"

[[record]]
smiles_record = "O=C(Nc1ccc(I)cc1)Nc1nc2ccc([N+](=O)[O-])cc2s1"
class_name = "label 0"


Pending compound:
growth >= 50% for `O=C(NO)c1ccc(CNC(=O)[C@H]2Cc3c([nH]c4ccccc34)[C@H](c3ccccc3)N2)cc1` ?
label 0

====

system: MDA-MB-231 breast; test: NCI-60 one-dose screen, 48 h (100 = growth as untreated, 0 = no growth, -100 = all killed); conditions: 10 µM
This is part of a sample that, as a whole, favours compounds with a hit. Of some 83,000 tested, about 20% had one in any assay.
assay-readout: growth (%)
Give bare numbers, in %.

Worked cases, growth given:
[[record]]
molecule = "CCOC(=O)c1c(CSc2ccccc2)n(C)c2cc(CN(C)C)c(O)c(CN(C)C)c12"
value_reported = 16

[[record]]
molecule = "O=C(/C=C/Nc1ccccc1)c1ccc2c(c1)Nc1ccccc1S2"
value_reported = 69.2


Each of the following entries comes with a recorded value; kindly state growth for each.
1. CCOC(=O)C1=C(N)N(c2ccccc2)C2=C(C(=O)CC(C)(C)C2)C1c1ccccc1OC (centres undefined)
2. O=C1NC(=NC23CC4CC(CC(C4)C2)C3)N/C1=C\c1ccc2ncccc2n1
3. O=C(CSc1nnc(-c2c[nH]c3ccccc23)n1-c1ccccc1)Nc1ccc(C(=O)/C=C/c2cccc([N+](=O)[O-])c2)cc1

1. 92.5
2. -18.5
3. 91.7

Each of the following entries comes with a recorded value; kindly state growth for each.
1. Cn1cc(/C=N/Nc2ccnc3cc(Cl)ccc23)c2ccccc21
2. OCCCNc1oc(-c2ccccc2)nc1[P+](c1ccccc1)(c1ccccc1)c1ccccc1

[-90.4, -8.13]

Each of the following entries comes with a recorded value; kindly state growth for each.
1. O=C(COc1ccc(NC(=O)Nc2ccc(Cl)cc2)cc1)N=Nc1c(O)[nH]c2ccc([N+](=O)[O-])cc12
2. Cc1noc2c(Cc3ccc([N+](=O)[O-])cc3)nn(CC(=O)N/N=C/c3ccc(Br)cc3)c(=O)c12

1: -44.7; 2: 46.4

====

system: MDA-MB-468 breast; test: NCI-60 one-dose screen, 48 h; conditions: 10 µM
About 83,000 compounds went through this panel and 20% of them were active in at least one assay; those are over-represented in the sample as a whole. The source made the active and inactive calls. Rule for the calls: active = growth percent below 10; inactive = the rest.
In this exercise, the only acceptable responses are active, inactive

// outcome(item) with item = `COc1ccc(-c2cc(C(=O)N=Nc3c(O)[nH]c4ccc(Br)cc34)c3ccccc3n2)cc1`
inactive

// outcome(item) with item = `CC(C)CCSc1nc(NC2CC2)c(C#N)c(-c2ccc(C(C)C)cc2)n1`
inactive
